Experiment: Induction of hemolysis in rabbit RBC incubated for 1 hr
Assay type: cell-based, Oryctolagus cuniculus, Erythrocyte
Details: rabbit red blood cells (erythrocytes)
Catalogue of HC50 at 1 h readings, one per entry.
Reported endpoint: HC50 at 1 h

1) CCN(CC)CCCCCCCCOc1c(-c2ccc(OCC=C(C)C)cc2)oc2cc(OCC=C(C)C)cc(O)c2c1=O: 29.4 µM
2) CCCCCNCCCOc1c(-c2ccc(OCC=C(C)C)cc2)oc2cc(OCC=C(C)C)cc(O)c2c1=O: 69.7 µM
3) CCN(CC)CCCNC(=O)COc1c(-c2ccc(OCC=C(C)C)cc2)oc2cc(OCC=C(C)C)cc(OCC(=O)NCCCN(CC)CC)c2c1=O: > 262 µM
4) CC(C)=CCOc1ccc(-c2oc3cc(OCC=C(C)C)cc(O)c3c(=O)c2OCCCN2CCOCC2)cc1: > 364 µM
5) CCCCCCCCCOc1ccc(-c2oc3cc(OCCCCCCCCC)cc(O)c3c(=O)c2OCCCN(CC)CC)cc1: > 307 µM
6) CCN(CC)CCOc1c(-c2ccc(OCC=C(C)C)cc2)oc2cc(OCC=C(C)C)cc(O)c2c1=O: > 383 µM
7) CCN(CC)CCCOc1c(-c2ccc(OCC=C(C)C)cc2)oc2cc(OCC=C(C)C)cc(O)c2c1=O: 59.9 µM
8) CCCCN(CCCC)CCCOc1c(-c2ccc(OCC=C(C)C)cc2)oc2cc(OCC=C(C)C)cc(O)c2c1=O: > 338 µM

----------
Assay: Cytotoxicity in human MDA-MB-231 cells assessed as cell viability at 32 times MIC incubated for 24 hrs by CCK8 assay relative to control
Format: cell-based
Settings: read-out: Activity
Reported endpoint: viability at 24 h, 32 times MIC

1) COC(=O)[C@H](CCCNC(=N)N)NC(=O)COc1c(-c2ccc(OCC=C(C)C)cc2)oc2cc(OCC=C(C)C)cc(OCC(=O)N[C@@H](CCCNC(=N)N)C(=O)OC)c2c1=O: 75%

----------
System: Staphylococcus aureus
Assay: Antibacterial activity against methicillin-resistant Staphylococcus aureus N315 assessed as inhibition of bacterial growth incubated for 24 hrs by broth microdilution method
Format: functional
Settings: N315, 24 h
Returns: string. Value is TRUE if measured MIC is below 10 µM, and FALSE if it is greater than or equal to it.

1) CCN(CC)CCCCCCCCCCOc1c(-c2ccc(OCC=C(C)C)cc2)oc2cc(OCC=C(C)C)cc(O)c2c1=O: FALSE
2) CCN(CC)CCCCCCOc1c(-c2ccc(OCC=C(C)C)cc2)oc2cc(OCC=C(C)C)cc(O)c2c1=O: FALSE
3) CCCCCNCCCOc1c(-c2ccc(OCC=C(C)C)cc2)oc2cc(OCC=C(C)C)cc(O)c2c1=O: FALSE
4) CC(C)=CCOc1ccc(-c2oc3cc(OCC=C(C)C)cc(O)c3c(=O)c2OCCCN2CCSCC2)cc1: FALSE
5) CC(C)=CCOc1ccc(-c2oc3cc(OCC=C(C)C)cc(O)c3c(=O)c2OCCC[N+](C)(C)C)cc1: TRUE
6) CCN(CC)CCCCOc1c(-c2ccc(OCC=C(C)C)cc2)oc2cc(OCC=C(C)C)cc(O)c2c1=O: TRUE
7) CCCC[N+](C)(CCCC)CCCOc1c(-c2ccc(OCC=C(C)C)cc2)oc2cc(OCC=C(C)C)cc(O)c2c1=O: FALSE
8) CCCCCCCOc1ccc(-c2oc3cc(OCCCCCCC)cc(O)c3c(=O)c2OCCCN(CC)CC)cc1: FALSE

----------
Tested on: Staphylococcus aureus
Assay: Antibacterial activity against methicillin-resistant Staphylococcus aureus N315 assessed as inhibition of bacterial growth incubated for 24 hrs by broth microdilution method
Format: functional
Conditions: N315, 24 h
Returns: string. Value is Satisfied if measured MIC is below 10 µM, and Not satisfied if it is greater than or equal to it.

1) COC(=O)[C@H](CCCNC(=N)N)NC(=O)[C@H](CCCNC(=N)N)NC(=O)COc1c(-c2ccc(OCC=C(C)C)cc2)oc2cc(OCC=C(C)C)cc(O)c2c1=O: Satisfied
2) CC(C)=CCOc1ccc(-c2oc3cc(OCC=C(C)C)cc(O)c3c(=O)c2OCC(=O)N[C@@H](CCCNC(=N)N)C(=O)NCCCN(C)C)cc1: Satisfied
3) CCCCN(CCCC)CCCOc1c(-c2ccc(OCC=C(C)C)cc2)oc2cc(OCC=C(C)C)cc(O)c2c1=O: Not satisfied
4) CCCCCCCCNCCCOc1c(-c2ccc(OCC=C(C)C)cc2)oc2cc(OCC=C(C)C)cc(O)c2c1=O: Not satisfied
5) COC(=O)[C@H](Cc1c[nH]cn1)NC(=O)COc1c(-c2ccc(OCC=C(C)C)cc2)oc2cc(OCC=C(C)C)cc(O)c2c1=O: Not satisfied
6) CCCCCCCOc1ccc(-c2oc3cc(OCCCCCCC)cc(O)c3c(=O)c2O)cc1: Not satisfied
7) CC(C)=CCOc1ccc(-c2oc3cc(OCC=C(C)C)cc(O)c3c(=O)c2OCCCN2CCOCC2)cc1: Not satisfied
8) CC(C)=CCOc1ccc(-c2oc3cc(OCC=C(C)C)cc(O)c3c(=O)c2OCCCN2CCCC2)cc1: Not satisfied
9) CCCNCCCOc1c(-c2ccc(OCC=C(C)C)cc2)oc2cc(OCC=C(C)C)cc(O)c2c1=O: Satisfied

----------
Test: Induction of hemolysis in rabbit RBC incubated for 1 hr
Format: cell-based, Oryctolagus cuniculus, Erythrocyte
Conditions: rabbit red blood cells (erythrocytes)
Reported endpoint: HC50 at 1 h (µM)

1. CCN(CC)CCCCOc1c(-c2ccc(OCC=C(C)C)cc2)oc2cc(OCC=C(C)C)cc(O)c2c1=O: 32.2
2. CC(C)=CCOc1ccc(-c2oc3cc(OCC=C(C)C)cc(O)c3c(=O)c2OCCC[N+](C)(C)C)cc1: 77.3
3. CCN(CC)CCCNC(=O)COc1c(-c2ccc(OCC=C(C)C)cc2)oc2cc(OCC=C(C)C)cc(O)c2c1=O: 80.3
4. CC(C)=CCOc1ccc(-c2oc3cc(OCC=C(C)C)cc(O)c3c(=O)c2OCC(=O)NCCCN(C)C)cc1: 287
5. CCCNCCCOc1c(-c2ccc(OCC=C(C)C)cc2)oc2cc(OCC=C(C)C)cc(O)c2c1=O: 49.8
6. CC[N+](C)(CC)CCCOc1c(-c2ccc(OCC=C(C)C)cc2)oc2cc(OCC=C(C)C)cc(O)c2c1=O: 88.2
7. CCCOc1ccc(-c2oc3cc(OCCC)cc(O)c3c(=O)c2OCCCN(CC)CC)cc1: 121
8. CCCC[N+](C)(CCCC)CCCOc1c(-c2ccc(OCC=C(C)C)cc2)oc2cc(OCC=C(C)C)cc(O)c2c1=O: 46.9
9. CCCCCOc1ccc(-c2oc3cc(OCCCCC)cc(O)c3c(=O)c2OCCCN(CC)CC)cc1: 284

----------
System: Staphylococcus aureus
Assay: Antibacterial activity against methicillin-resistant Staphylococcus aureus N315 assessed as inhibition of bacterial growth incubated for 24 hrs by broth microdilution method
Type: functional
Settings: N315, 24 h
Catalogue of MIC readings, one per entry.
Reported endpoint: MIC (µM)

1. CCN(CC)CCCNC(=O)COc1c(-c2ccc(OCC=C(C)C)cc2)oc2cc(OCC=C(C)C)cc(O)c2c1=O: 10.5
2. CC(C)=CCOc1ccc(-c2oc3cc(OCC=C(C)C)cc(O)c3c(=O)c2OCCCN2CCN(C)CC2)cc1: 11.1
3. COC(=O)[C@H](CCCNC(=N)N)NC(=O)COc1c(-c2ccc(OCC=C(C)C)cc2)oc2cc(OCC=C(C)C)cc(O)c2c1=O: 2.4
4. CCN(CC)CCCCCCCCOc1c(-c2ccc(OCC=C(C)C)cc2)oc2cc(OCC=C(C)C)cc(O)c2c1=O: 20.6
5. COC(=O)[C@H](CCCNC(=N)N)NC(=O)COc1c(-c2ccc(OCC=C(C)C)cc2)oc2cc(OCC=C(C)C)cc(OCC(=O)N[C@@H](CCCNC(=N)N)C(=O)OC)c2c1=O: 1.8
6. CC(C)=CCOc1ccc(-c2oc3cc(OCC=C(C)C)cc(O)c3c(=O)c2OCC(=O)NCCCN(C)C)cc1: 11.1
7. CCN(CC)CCOc1c(-c2ccc(OCC=C(C)C)cc2)oc2cc(OCC=C(C)C)cc(O)c2c1=O: 95.8
8. CCCCCOc1ccc(-c2oc3cc(OCCCCC)cc(O)c3c(=O)c2OCCCN(CC)CC)cc1: 11.6
9. CC(C)=CCOc1ccc(-c2oc3cc(OCC=C(C)C)cc(OCC(=O)NCCCN(C)C)c3c(=O)c2OCC(=O)NCCCN(C)C)cc1: 70.7

----------
Experiment: Cytotoxicity in mouse corneal epithelial cells assessed as cell viability at 32 times MIC incubated for 24 hrs by CCK8 assay relative to control
Assay type: cell-based
Conditions: read-out: Activity
Reported endpoint: viability at 24 h, 32 times MIC (%)

1) COC(=O)[C@H](CCCNC(=N)N)NC(=O)COc1c(-c2ccc(OCC=C(C)C)cc2)oc2cc(OCC=C(C)C)cc(OCC(=O)N[C@@H](CCCNC(=N)N)C(=O)OC)c2c1=O: 70.1

Measured values drawn from ChEMBL document CHEMBL4602730 for this set.
